So I've got a bunch of compounds here, and I need their EC50 values.
Test: CaMKII Cell-Based Activity: CaMKII activity in neonatal rat ventricular myocytes (NRVM) was measured by monitoring the phosphorylation level of phospholamban using high-content imaging. NRVMs were plated in a clear bottom 384-well plate in medium supplemented with 10% fetal bovine serum (FBS) and incubated at 37° C., 5% CO2 overnight. The medium was changed to a serum-free medium and compounds were dosed to the cells. The cells were incubated at 37° C., 5% CO2 for 4 hours and were then treated with 100 nM ATX-II (Alomone Labs) to activate CaMKII. 10 minutes after the addition of ATX-II, the cells were fixed with 4% formaldehyde followed by permeabilization with 0.1% triton X100. The fixed cells were stained with an anti-phospho-phospholamban primary antibody (Santa Cruz Biotechnology) and an Alexa488-labeled anti-rabbit IgG secondary antibody (Life Technologies Corporation) as well as Hoechst 33342 (Life Technologies Corporation). The cells were imaged using an ArrayScan VTI (Cellomics) and analyzed for cells containing a positive fluorescent signal at 485 nm, reported as % responder. The % responders were plotted against the compound concentration to determine the compounds EC50.
One number for each entry, in nM.

Compound: CCNC(=O)[C@@H]1CCN1c1cc(C(=O)NC[C@H](C)N(CC)CC)cc(-c2cnn3ccc(-c4cccs4)nc23)n1
Readout Name: EC50
Scale Unit: nM
Assay Value: 28.5

Value sought for every listed compound: EC50.
1. CCN[C@@H](C)CNC(=O)c1ccnc(-c2cnn3ccc(-c4cccs4)nc23)c1
2. Nc1cc(C(=O)N2C3CCNCC2CC3)cc(-c2cnn3ccc(-c4cccs4)nc23)n1 (stereo unspecified)
3. O=C(c1ccnc(-c2cnn3ccc(-c4ccccc4)nc23)c1)N1C2CCCC1CNCC2 (stereo unspecified)
4. O=C(c1ccnc(-c2cnn3ccc(-c4cccs4)nc23)c1)N1C2CCNCC1CC2 (stereo unspecified)
5. CN(CCn1ccnc1)c1cc(C(=O)N2CC3CCC(C2)NC3)cc(-c2cnn3ccc(-c4cccs4)nc23)n1 (stereo unspecified)

[A]
1. 33
2. 111
3. 51.6
4. 187
5. 449

----------
Test: CaMKII Cell-Based Activity: CaMKII activity in neonatal rat ventricular myocytes (NRVM) was measured by monitoring the phosphorylation level of phospholamban using high-content imaging. NRVMs were plated in a clear bottom 384-well plate in medium supplemented with 10% fetal bovine serum (FBS) and incubated at 37° C., 5% CO2 overnight. The medium was changed to a serum-free medium and compounds were dosed to the cells. The cells were incubated at 37° C., 5% CO2 for 4 hours and were then treated with 100 nM ATX-II (Alomone Labs) to activate CaMKII. 10 minutes after the addition of ATX-II, the cells were fixed with 4% formaldehyde followed by permeabilization with 0.1% triton X100. The fixed cells were stained with an anti-phospho-phospholamban primary antibody (Santa Cruz Biotechnology) and an Alexa488-labeled anti-rabbit IgG secondary antibody (Life Technologies Corporation) as well as Hoechst 33342 (Life Technologies Corporation). The cells were imaged using an ArrayScan VTI (Cellomics) and analyzed for cells containing a positive fluorescent signal at 485 nm, reported as % responder. The % responders were plotted against the compound concentration to determine the compounds EC50.
EC50 less than 0.08 µM is condition met; EC50 greater than or equal to 0.08 µM is condition not met.

[Q] Record CCN(CC)[C@@H](C)CNC(=O)c1cc(NS(C)(=O)=O)nc(-c2cnn3ccc(-c4cccs4)nc23)c1 : is its EC50 strictly below 0.08 µM?
[A] condition not met

[Q] Next compound up: C[C@@H](CNC(=O)c1ccnc(-c2cnn3ccc(-c4cccs4)nc23)c1)NCC1CC1
[A] condition met

[Q] Follow-up item: CCN(CC)[C@@H](C)CNC(=O)c1cc(-c2c[nH]nc2C)nc(-c2cnn3ccc(-c4cccs4)nc23)c1
[A] condition met

[Q] Try this compound too: CCN(CC)[C@@H](C)CNC(=O)c1cc(-c2cnn3ccc(-c4cccs4)nc23)nc(N2CCC(C)(O)CC2)c1
[A] condition met

[Q] Another: CCN(CC)[C@@H](C)CNC(=O)c1cc(-c2cnn3ccc(-c4cccs4)nc23)nc(N2CC(O)(C(F)(F)F)C2)c1
[A] condition met
